- Study target: Opioid receptors; mu & delta (Rattus norvegicus) (UniProt P33533+P33535)
- Sequence (P33533 whole entry, looked up): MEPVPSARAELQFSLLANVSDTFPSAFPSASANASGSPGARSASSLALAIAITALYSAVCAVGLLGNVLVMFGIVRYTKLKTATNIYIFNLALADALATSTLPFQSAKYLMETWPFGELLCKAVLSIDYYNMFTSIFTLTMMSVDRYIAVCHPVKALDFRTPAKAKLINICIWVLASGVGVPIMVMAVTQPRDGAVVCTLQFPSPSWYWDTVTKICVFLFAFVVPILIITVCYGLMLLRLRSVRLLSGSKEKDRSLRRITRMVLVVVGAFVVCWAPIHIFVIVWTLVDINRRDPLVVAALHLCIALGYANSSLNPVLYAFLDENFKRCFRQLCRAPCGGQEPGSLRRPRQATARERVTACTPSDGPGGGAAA
- Sequence (P33535 whole entry, looked up): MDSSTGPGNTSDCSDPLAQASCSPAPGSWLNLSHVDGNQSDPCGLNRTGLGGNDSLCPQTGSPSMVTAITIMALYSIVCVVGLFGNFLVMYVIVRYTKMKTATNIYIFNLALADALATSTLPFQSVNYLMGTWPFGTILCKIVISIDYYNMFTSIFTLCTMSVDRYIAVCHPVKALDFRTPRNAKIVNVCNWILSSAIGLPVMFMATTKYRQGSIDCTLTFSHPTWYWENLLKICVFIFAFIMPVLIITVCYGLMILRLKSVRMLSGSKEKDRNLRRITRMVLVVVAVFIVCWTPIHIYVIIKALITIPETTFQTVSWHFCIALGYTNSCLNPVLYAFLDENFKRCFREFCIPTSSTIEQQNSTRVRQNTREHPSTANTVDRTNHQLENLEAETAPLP
- Test summary: Selectivity for rat mu opioid receptor over rat delta opioid receptor
- Type: protein assay
Record form. Attribute: Ratio Ki. Fill in for each entry.
Give bare numbers.

Guide cases for Ratio Ki, answers given:
{"Item smiles": "Cc1nc(CCCCNC(=O)[C@@H](N)Cc2ccc(O)cc2)c(=O)[nH]c1CCCNC(=O)[C@@H](N)Cc1ccc(O)cc1", "Ratio Ki": 220}
{"Item smiles": "Cc1cc(O)cc(C)c1C[C@H](N)C(=O)NCCCCc1[nH]c(=O)c(CCCNC(=O)[C@@H](N)Cc2c(C)cc(O)cc2C)nc1C", "Ratio Ki": 369}
{"Item smiles": "Cc1cc(O)cc(C)c1C[C@H](N)C(=O)NCCCCc1nc(C)c(CCCNC(=O)[C@@H](N)Cc2c(C)cc(O)cc2C)[nH]c1=O", "Ratio Ki": 1520}

Could you now consider this next compound?
Record request: Ratio Ki value, item Cc1nc(CCCNC(=O)[C@@H](N)Cc2ccc(O)cc2)c(=O)[nH]c1CCCCNC(=O)[C@@H](N)Cc1ccc(O)cc1
65
